- experimental.details: Fraction unbound in CD-1 mouse plasma by equilibrium dialysis
- Assay type: ADME, cell-free
Measured fraction unbound values are reported for all entries that follow.

Below, each entry is followed by its recorded fraction unbound result.
O=C(O)/C=C/c1ccc(/C(=C(\c2ncc(Cl)cc2Cl)C2CCC2)c2ccc3[nH]nc(F)c3c2)cc1 | 0.011
O=C(O)/C=C/c1ccc(/C(=C(\c2ncccc2C(F)(F)F)C2CCC2)c2ccc3[nH]nc(F)c3c2)cc1 | 0.048
COc1ccc(/C(=C(\c2ccc(/C=C/C(=O)O)cc2)c2ccc3[nH]nc(F)c3c2)C2CCC2)c(Cl)c1 | 0.001

Now take the following compound into account.
Query: What does the data say about its fraction unbound? Entry: O=C(O)/C=C/c1ccc(/C(=C(\c2ccccc2Cl)C2CCC2)c2ccc3[nH]nc(F)c3c2)cc1
Response: 0.003
